- measurement_target: quisqualate type receptors
- assay: ^3 H-AMPA binding: displacement of ^3 H-AMPA from quisqualate type receptors in cerebral cortical membrane homogenate
- Design: species or system rat
- settings: displacement of 50% of specific ^3 H-AMPA binding; 5 nM ^3 H-AMPA, 0° C., 30 min, pH 7.1

compound: Cn1c(=O)c(=O)[nH]c2cc([N+](=O)[O-])ccc21
unit_tag: µg/mL
IC50: 0.96
--
compound: O=c1[nH]c2c3ccccc3ccc2n(C2CCCCC2)c1=O [Compound 27k]
unit_tag: µg/mL
IC50: 0.61
--
compound: Cn1c(=O)c(=O)[nH]c2c3ccccc3ccc21
unit_tag: µg/mL
IC50: 0.42
--
compound: O=c1[nH]c2cc([N+](=O)[O-])c(Cl)cc2n(C2CCCCC2)c1=O
unit_tag: µg/mL
IC50: 0.69

Data origin, for the record: patent US5026704A
